- tested_target: UniProt:P51679
- Sequence (P51679 1-360): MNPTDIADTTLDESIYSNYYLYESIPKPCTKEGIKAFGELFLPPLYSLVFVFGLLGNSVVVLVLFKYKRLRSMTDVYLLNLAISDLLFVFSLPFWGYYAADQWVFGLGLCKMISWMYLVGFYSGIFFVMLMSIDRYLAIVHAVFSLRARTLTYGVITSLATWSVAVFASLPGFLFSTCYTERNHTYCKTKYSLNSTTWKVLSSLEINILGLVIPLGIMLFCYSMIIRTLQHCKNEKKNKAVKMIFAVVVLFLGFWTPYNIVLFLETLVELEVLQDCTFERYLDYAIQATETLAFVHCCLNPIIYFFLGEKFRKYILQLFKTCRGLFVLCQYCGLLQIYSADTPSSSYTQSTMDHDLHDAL
Where a name gives a salt, the structure may show the parent alone.
Consider the following molecules; for each one, report its IC50.

Provide IC50 value for the following molecule: COc1cccc2c1c(NS(=O)(=O)c1ccc(Cl)s1)nn2Cc1cccc(CNC(=O)C2COCCN2)c1 (stereo not drawn) [Example 6, trifluoroacetate]
3.98 to 15.8 nM

Provide IC50 value for the following molecule: COc1cccc2c1c(NS(=O)(=O)c1ccc(Cl)s1)nn2Cc1cccc(CNC(=O)C(C)(C)C)c1 [Example 4]
3.98 to 15.8 nM

Provide IC50 value for the following molecule: COc1cccc2c1c(NS(=O)(=O)c1ccc(Cl)s1)nn2Cc1cccc(CNC(=O)[C@H](C)N)c1 [Example 18, trifluoroacetate]
3.98 to 15.8 nM

Provide IC50 value for the following molecule: CN[C@@H](C)C(=O)NCc1cccc(Cn2nc(NS(=O)(=O)c3ccc(Cl)s3)c3c(OC)cccc32)c1 [Example 17, trifluoroacetate]
3.98 to 15.8 nM

Provide IC50 value for the following molecule: COc1cccc2c1c(NS(=O)(=O)c1ccc(Cl)s1)nn2Cc1cccc(CNC(=O)[C@H](N)C(C)C)c1 [Example 48]
3.98 to 15.8 nM

Provide IC50 value for the following molecule: COc1cccc2c1c(NS(=O)(=O)c1ccc(Cl)s1)nn2Cc1cccc(CNC(=O)[C@@H]2COCCN2)c1 [Example 8, hydrochloride]
3.98 to 15.8 nM
